- TARGET: human GHSR (Homo sapiens, UniProt Q92847)
- Sequence (Q92847 whole entry): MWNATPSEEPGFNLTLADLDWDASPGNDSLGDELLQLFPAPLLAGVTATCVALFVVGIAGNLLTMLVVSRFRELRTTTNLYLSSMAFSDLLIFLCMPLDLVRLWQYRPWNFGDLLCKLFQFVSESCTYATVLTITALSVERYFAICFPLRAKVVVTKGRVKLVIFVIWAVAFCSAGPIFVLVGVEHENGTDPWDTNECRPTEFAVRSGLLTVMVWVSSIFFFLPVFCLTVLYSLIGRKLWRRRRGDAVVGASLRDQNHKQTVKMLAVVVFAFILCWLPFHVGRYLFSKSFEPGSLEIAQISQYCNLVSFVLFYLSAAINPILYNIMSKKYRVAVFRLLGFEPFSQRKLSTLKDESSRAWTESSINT
- ASSAY TEXT: Functional FLIPR assay: inhibition of the ghrelin-evoked peak response in CHO cells stably expressing human GHSR (IC50, functional Ki)
- STUDY CONDITIONS: functional Ki calculated from IC50 by Cheng-Prusoff equation, Fluo-4AM, ghrelin at EC70
Catalogue of compounds with associated Ki
Field format: number, assumed nM, no unit text.

Below are worked cases with known answers.
* Fc1ccc2c3c([nH]c2c1)C1(CCN(CCOc2ccccc2)C1)NCC3 (stereo not drawn) | 572
* COc1ccc2[nH]c3c(c2c1)CCNC31CCN(CCOc2ccccc2)C1 (stereo not drawn) | 60

Here is the next item to consider.
stdin: So what's the measured Ki for this one? CCCCNC(=O)N1CCc2c([nH]c3ccc(OC)cc23)C12CCN(CCOc1ccccc1)C2 (stereo not drawn)
stdout: 59
